target-entity: mTOR (Homo sapiens)
Construct: FLAG; made in house
Sequence (P42345 1362-2549): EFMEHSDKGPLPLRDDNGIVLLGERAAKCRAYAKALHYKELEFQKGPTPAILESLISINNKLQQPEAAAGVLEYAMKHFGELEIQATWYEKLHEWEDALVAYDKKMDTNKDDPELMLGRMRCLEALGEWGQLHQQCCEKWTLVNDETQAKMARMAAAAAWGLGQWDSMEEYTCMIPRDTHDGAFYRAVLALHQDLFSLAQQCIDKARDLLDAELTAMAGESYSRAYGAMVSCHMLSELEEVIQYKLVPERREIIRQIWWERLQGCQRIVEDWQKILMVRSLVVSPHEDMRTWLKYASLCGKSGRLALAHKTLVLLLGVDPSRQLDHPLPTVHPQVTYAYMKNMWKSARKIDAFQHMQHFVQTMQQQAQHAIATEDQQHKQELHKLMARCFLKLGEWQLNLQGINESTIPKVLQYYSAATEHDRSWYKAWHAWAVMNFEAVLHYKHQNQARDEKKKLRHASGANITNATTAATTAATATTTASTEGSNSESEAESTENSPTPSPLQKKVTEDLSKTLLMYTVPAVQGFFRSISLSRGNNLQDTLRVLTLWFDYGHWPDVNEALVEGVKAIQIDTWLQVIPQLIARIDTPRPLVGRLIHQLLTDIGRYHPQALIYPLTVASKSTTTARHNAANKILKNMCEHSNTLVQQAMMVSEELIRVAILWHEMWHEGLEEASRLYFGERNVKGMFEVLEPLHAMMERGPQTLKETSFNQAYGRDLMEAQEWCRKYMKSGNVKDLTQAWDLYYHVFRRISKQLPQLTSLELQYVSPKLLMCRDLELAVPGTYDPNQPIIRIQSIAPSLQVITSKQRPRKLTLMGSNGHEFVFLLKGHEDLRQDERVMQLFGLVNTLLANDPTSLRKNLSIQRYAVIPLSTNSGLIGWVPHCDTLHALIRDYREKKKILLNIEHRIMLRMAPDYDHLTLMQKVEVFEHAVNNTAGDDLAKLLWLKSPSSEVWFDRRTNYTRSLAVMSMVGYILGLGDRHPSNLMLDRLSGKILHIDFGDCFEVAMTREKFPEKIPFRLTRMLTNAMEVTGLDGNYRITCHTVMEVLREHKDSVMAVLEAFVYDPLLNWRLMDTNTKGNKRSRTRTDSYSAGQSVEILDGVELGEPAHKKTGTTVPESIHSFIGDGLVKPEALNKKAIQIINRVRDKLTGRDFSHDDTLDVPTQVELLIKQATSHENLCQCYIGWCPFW
assay: In Vitro mTOR Kinase Assay (Echo), Test (a)(ii)
Assay type: biochemical
measurement-setup: table of enzyme assay Test (a)(ii); read-out: Test (a)(ii) IC50
measurement-type: IC50 (nM)

>>> print(df.to_string())
                                   molecule  measurement_type  observed_measurement
0  C[C@H]1COCCN1c1cc(C2(S(=O)(=O)CCCO)CC2)nc(-c2ccc(NC(=O)NCCCO)cc2)n1 [Example 31i]              IC50                  3.26

I. C[C@H]1COCCN1c1cc(C2(S(=O)(=O)c3ccccc3)CCC2)nc(-c2ccc(NC(=O)NCCCO)cc2)n1 [Example 64r]
II. C[C@H]1COCCN1c1cc(C2(S(=O)(=O)CCCO)CC2)nc(-c2ccc(NC(=O)NCC(=O)N(C)C)cc2)n1 [Example 36cs]
// max by IC50 over [ I , II ] Output the label that corresponds to your choice.
II

The measurements presented in this section are drawn from patent US20090018134A1.
